assay: gradient 5% acetonitrile 3 min, to 50% in 2 min, to 85% in 15 min, held 3 min, 100 µL/min; conditions: column: Zorbax Extend-C18 2.1 x 50 mm; eluents: water / acetonitrile, 0.1% formic acid
value kind: RP-LC retention time (s)
Please reply with the bare figure in s and do not write the unit itself.

Examples from the recorded data:
>  <molecule>
Cc1cc(C)cc(NC(=O)NCCn2nnc3cc(C(=O)N4CCCC4)ccc32)c1

>  <value kind>
RP-LC retention time

>  <obs value>
702

$$$$
>  <molecule>
CCOc1ccc(NC(=O)NCCn2c(C(F)(F)F)nc3cccnc32)cc1

>  <value kind>
RP-LC retention time

>  <obs value>
756

$$$$
>  <molecule>
CCC1Oc2ccc(S(=O)(=O)N3CCC(C(=O)NCc4ccc(F)cc4)CC3)cc2NC1=O (centres undefined)

>  <value kind>
RP-LC retention time

>  <obs value>
922

$$$$
>  <molecule>
CCCCc1ccc(NC(=O)CSc2cc(N3CCN(c4ccc(OC)cc4)CC3)ncn2)cc1

>  <value kind>
RP-LC retention time

>  <obs value>
1310

$$$$
>  <molecule>
Cc1nnc(-c2ccc3ccn(CC(=O)NCc4ccc(N(C)C)cc4)c3c2)o1

>  <value kind>
RP-LC retention time

>  <obs value>
632

$$$$
>  <molecule>
Cc1ccc(CN2CC(CO)C3(CCNCC3)C2)cc1C (centres undefined)

>  <value kind>
RP-LC retention time

>  <obs value>
551

$$$$
>  <molecule>
CCCCN(CCCNC(=O)c1cc(C)nn1-c1ccccc1)Cc1ccccc1

>  <value kind>
RP-LC retention time

>  <obs value>
656

$$$$
>  <molecule>
CCN1c2ccccc2C(=O)NC12CCN(C(=O)NCc1ccc(F)cc1)CC2

>  <value kind>
RP-LC retention time

>  <obs value>
769

$$$$

Q. Recorded RP-LC retention time for Cc1ccc(NC(=O)C2CCN(S(=O)(=O)c3ccc4c(c3)sc(=O)n4C)CC2)cc1C , please?
A. 913

Q. Try CC(C)CC(=O)NC1CCN(c2ccc(F)cc2)C1=O (centres undefined) next.
A. 742

Q. Try CCc1ccc(C(=O)NC2CCN(c3ccccc3)C2=O)cc1 (centres undefined) next.
A. 811

Q. Try Cn1c(N2CCCC(C(=O)NCC3CCN(Cc4ccc(F)cc4)CC3)C2)cc(=O)n(C)c1=O (centres undefined) next.
A. 590

Q. Try CCC(C)NC(=O)N1c2cccnc2N(C(C)C)C(=O)C1C (centres undefined) next.
A. 850

Q. Try O=C(NCc1cccnc1)C1CC(=O)N(c2ccc3c(c2)CCN3C(=O)C2CCC2)C1 (centres undefined) next.
A. 598

* * *

experiment: gradient 5% acetonitrile 3 min, to 50% in 2 min, to 85% in 15 min, held 3 min, 100 µL/min; conditions: column: Zorbax Extend-C18 2.1 x 50 mm; eluents: water / acetonitrile, 0.1% formic acid
Dear colleague, classification is by RP-LC retention time, with ranges listed here: bin 1: < 700 s; bin 2: ≥ 700 s and < 900 s; bin 3: ≥ 900 s

Take a look at these entries with their results.
>  <molecule>
COc1ccc(CNC(=O)C2CCN(c3ccc(SCc4ccccc4)nn3)CC2)c(OC)c1

>  <class name>
bin 2

$$$$
>  <molecule>
COc1ccc(S(=O)(=O)N2CCC(n3cnnc3-c3ccccc3)CC2)cc1

>  <class name>
bin 2

$$$$
>  <molecule>
CCOC(=O)c1nc(Nc2ccc(C(=O)OCC(C)C)cc2)c2ccccc2n1

>  <class name>
bin 3

$$$$

Q. Exercise: read the entry O=C(NC1CCCCCC1)C1CCCN(c2ncc(-c3cccc(F)c3)cn2)C1 (centres undefined) and state which class it falls under.
A. bin 3

* * *

assay: gradient 5% acetonitrile 3 min, to 50% in 2 min, to 85% in 15 min, held 3 min, 100 µL/min; conditions: column: Zorbax Extend-C18 2.1 x 50 mm; eluents: water / acetonitrile, 0.1% formic acid
Binary classification by RP-LC retention time, with 700 s as an inclusive lower bound for 1.0; all other cases are 0.0.

Take a look at these entries with their results.
>  <compound>
CC(C)n1nnc2ccc(-c3noc(-c4ccc(F)cc4)n3)cc21

>  <class name>
1.0

$$$$
>  <compound>
O=C(NCCC1=CCCCC1)C1CCN(S(=O)(=O)c2ccc(-c3noc(C4CC4)n3)cc2)CC1

>  <class name>
1.0

$$$$
>  <compound>
CCc1ccc(-n2nc(C)c3c(C(F)(F)F)cc(OCC(=O)N4CCCC4)nc32)cc1

>  <class name>
1.0

$$$$
>  <compound>
COc1ccc(CN2CCC(C3CCNC3)CC2)c(Cl)c1OC (stereo not given)

>  <class name>
0.0

$$$$
>  <compound>
COc1ccc(S(=O)(=O)C(CNC(=O)c2ccco2)c2cccs2)cc1 (stereo not given)

>  <class name>
1.0

$$$$

Q. Dear colleague, could you confirm whether COCCn1c(CC2CCN(C(=O)Cc3ccsc3)C2)nc2cccnc21 (stereo not given) has RP-LC retention time at or above 700 s?
A. 0.0

Q. Try Cc1ccn2c(Nc3ccccc3C)c(-c3ccccc3)nc2c1 next.
A. 1.0

Q. Try O=C(c1n[nH]c2ccccc12)N1CCCn2nc(-c3cccs3)cc2C1 next.
A. 1.0

* * *

experiment: gradient 5% acetonitrile 3 min, to 50% in 2 min, to 85% in 15 min, held 3 min, 100 µL/min; settings: column: Zorbax Extend-C18 2.1 x 50 mm; eluents: water / acetonitrile, 0.1% formic acid
Threshold 700 s: RP-LC retention time strictly smaller gives class 1, otherwise class 0.

Take a look at these entries with their results.
>  <compound>
Cc1cc2c(cc1S(=O)(=O)N1CCCC1C(=O)N1CCc3ccccc31)OC(C)C(=O)N2 (stereo not given)

>  <class name>
class 0

$$$$
>  <compound>
COc1ccc(CCN)cc1

>  <class name>
class 1

$$$$
>  <compound>
Cc1cc(NC(=O)CN2C(=O)NC(c3ccc(Cl)cc3)C3=C2COC3=O)ccc1Br (stereo not given)

>  <class name>
class 0

$$$$

Alright, here's another compound for you.
Q. RP-LC retention time under 700 s? Item: CCc1ccc(NC(=O)Cn2ncn3c(C)c(C(=O)NCc4ccccc4)c(C)c3c2=O)cc1
A. class 0

* * *

Catalogue of RP-LC retention time readings, one per entry.
assay: gradient 5% acetonitrile 3 min, to 50% in 2 min, to 85% in 15 min, held 3 min, 100 µL/min; conditions: column: Zorbax Extend-C18 2.1 x 50 mm; eluents: water / acetonitrile, 0.1% formic acid
Please reply with the bare figure in s and do not write the unit itself.

Examples from the recorded data:
>  <compound>
Cc1ccccc1C1CCCN1C(=O)c1c(Cl)cnn1C (stereo not given)

>  <RP-LC retention time / s>
892

$$$$
>  <compound>
CCOCCCNC(=O)c1nc(Nc2ccc(C)cc2)c2ccccc2n1

>  <RP-LC retention time / s>
746

$$$$
>  <compound>
COc1ccc(Cl)cc1NC(=O)CSc1ccc(-n2ccnc2)nn1

>  <RP-LC retention time / s>
613

$$$$
>  <compound>
O=C(Cn1c(=O)c2cccn2c2ccc(F)cc21)NCCc1cccs1

>  <RP-LC retention time / s>
822

$$$$
>  <compound>
Cc1cccc(CN2CCC(CNC(=O)Nc3cn(C)c(=O)c4ccccc34)CC2)c1

>  <RP-LC retention time / s>
603

$$$$

Q. Recorded RP-LC retention time for CCCCN1N=C(C(=O)N2CCCCCC2)S(=O)(=O)c2ccccc21 , please?
A. 1030

Q. Try COc1ccccc1CCNC(=O)Cn1ccc2ccccc21 next.
A. 891

Q. Try COc1ccc(-c2cc3c4nnc(CCC(=O)N5CCN(c6ccccn6)CC5)n4ccn3n2)cc1 next.
A. 605

Q. Try CCc1cc(N2CCN(C(=O)c3ccc(Br)cc3)CC2)nc2nnc(C)n12 next.
A. 640

Q. Try CCc1ccc(NC(=O)N2CCc3nc[nH]c3C2)cc1 next.
A. 612

Q. Try CCN(CC)CCNC(=O)c1cc2cc(S(=O)(=O)N(C)C)ccc2n1CC next.
A. 633

Q. Try CCn1cc(-c2nc(C)c(C(=O)N3CCCCCC3)s2)c2cccnc21 next.
A. 942

Q. Try Cc1ccc(CNC(=O)c2nnc(-c3ccc(S(=O)(=O)N4CCCC4)cc3)o2)o1 next.
A. 852

Q. Try COC(=O)c1ccc2c(=O)n(-c3ccccc3)c(N3CCCCC3)nc2c1 next.
A. 1170

Q. Try Cc1cc(C)c(S(=O)(=O)Nc2ccc3nc(N4CCN(C)CC4)cc(C(=O)O)c3c2)cc1C next.
A. 611

Q. Try COc1ccc(C(=O)N2CCCC2c2nc(-c3ccccc3)n[nH]2)cc1 (stereo not given) next.
A. 707

Q. Try CCOC(=O)c1nc(NC(C)c2ccccc2)c2ccccc2n1 (stereo not given) next.
A. 794

Q. Try COc1ccccc1N1CCN(C(=O)Cn2nc(C(=O)N3CCOCC3)c3ccccc32)CC1 next.
A. 718

Q. Try CC(C)Cn1cc(CCNC(=O)c2ccc(F)cc2F)c2cccnc21 next.
A. 834

Q. Try O=C(CSc1ccc(N2CCCC(C(=O)NC3CC3)C2)nn1)Nc1ccc(Cl)cc1 (stereo not given) next.
A. 682
